testedTarget: T1, cynomolgus monkey serum albumin (cynomolgus monkey, UniProt A2V9Z4 25-608)
T1 construct: amine-coupled to a CM5 chip; also called CSA; cynoSA
T1 sequence (A2V9Z4 25-608 limits assumed): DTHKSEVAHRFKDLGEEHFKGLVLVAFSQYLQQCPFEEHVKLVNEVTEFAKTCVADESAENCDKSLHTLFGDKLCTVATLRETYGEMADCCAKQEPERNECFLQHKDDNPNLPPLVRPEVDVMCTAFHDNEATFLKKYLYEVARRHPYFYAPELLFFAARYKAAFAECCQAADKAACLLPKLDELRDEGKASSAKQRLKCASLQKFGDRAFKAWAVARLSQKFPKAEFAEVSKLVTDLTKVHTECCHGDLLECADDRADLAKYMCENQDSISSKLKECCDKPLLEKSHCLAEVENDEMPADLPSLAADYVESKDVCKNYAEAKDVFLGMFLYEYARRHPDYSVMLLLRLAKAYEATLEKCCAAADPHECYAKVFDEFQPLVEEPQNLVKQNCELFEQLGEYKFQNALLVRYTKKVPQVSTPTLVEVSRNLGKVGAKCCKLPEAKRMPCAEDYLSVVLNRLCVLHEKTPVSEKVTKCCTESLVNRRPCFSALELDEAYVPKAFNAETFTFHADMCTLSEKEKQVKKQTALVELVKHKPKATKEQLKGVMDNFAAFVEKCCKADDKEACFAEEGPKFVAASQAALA
assayDetails: SPR, BIAcore 3000, CSA on CM5 chip
endpoint: Kd (nM)
Supply the numeric figure in nM, leaving out any unit text.

Ask: Which Kd value belongs to 2D3-9GS-59H12-MycHis (other) EVQLVESGGSLVQPGGSLRLSCAASGFTFDDYAMSWVRQVPGKGLEWVSSINWSGTHTDYADSVKGRFTISRNNANNTLYLQMNSLKSEDTAVYYCAKNWRDAGTTWFEKSGSAGQGTQVTVSSGGGGSGGGSAAARSWDFDVFGGGTPVGGAAAEQKLISEEDLNGAAHHHHHH ?
Reply: 1280
